# assay.system: Cytochrome P450 2D6 (Homo sapiens) (UniProt P10635)
# Sequence (P10635 whole entry, looked up): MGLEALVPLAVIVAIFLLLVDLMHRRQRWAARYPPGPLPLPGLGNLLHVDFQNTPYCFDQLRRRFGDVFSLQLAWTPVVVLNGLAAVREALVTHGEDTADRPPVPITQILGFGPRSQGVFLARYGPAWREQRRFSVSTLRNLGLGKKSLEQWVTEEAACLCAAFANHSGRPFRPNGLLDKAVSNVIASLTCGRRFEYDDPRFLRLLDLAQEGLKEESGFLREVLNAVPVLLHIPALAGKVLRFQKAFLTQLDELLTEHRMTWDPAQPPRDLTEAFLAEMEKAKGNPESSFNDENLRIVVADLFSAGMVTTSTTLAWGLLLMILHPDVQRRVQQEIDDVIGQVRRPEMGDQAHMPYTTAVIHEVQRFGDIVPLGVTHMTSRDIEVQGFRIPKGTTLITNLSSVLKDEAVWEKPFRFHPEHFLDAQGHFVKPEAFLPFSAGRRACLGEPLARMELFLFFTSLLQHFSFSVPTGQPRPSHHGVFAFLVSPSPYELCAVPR
# assay.summary: Cytochrome panel assay with activity outcomes
# applied.conditions: recombinant CYP, pro-luciferin dealkylation, luminescence, p450-cyp2d6; series mostly up to 57.1 µM
The whole screen tested about 16,000 compounds, of which about 2,600 (16%) were called active. Another 20% or so got no clear call; they are omitted. Only a sample is shown.
measurement.label: AC50

As a guide, the following entries are already answered.
[[record]]
compound = "CCCN(CCC)CCCNS(=O)(=O)c1cc(Br)cc2c1N(C(C)=O)CC2"
assay_system = "Cytochrome P450 2D6 (Homo sapiens) (UniProt P10635)"
measured = "inactive"

[[record]]
compound = "Cc1cc(C)c(C#N)c(OCC(=O)c2ccc(Br)cc2)n1"
assay_system = "Cytochrome P450 2D6 (Homo sapiens) (UniProt P10635)"
measured = "inactive"

[[record]]
compound = "CCC(C)(C(=O)NC1CCCC1)N(C(=O)c1ccccn1)c1ccccc1 (centres undefined)"
assay_system = "Cytochrome P450 2D6 (Homo sapiens) (UniProt P10635)"
measured = "inactive"

[[record]]
compound = "CCOC(=O)c1cccc(C(=O)OCC)n1"
assay_system = "Cytochrome P450 2D6 (Homo sapiens) (UniProt P10635)"
measured = "inactive"

[[record]]
compound = "CCc1nn(C)c(-c2n[nH]c(=S)n2N)c1Cl"
assay_system = "Cytochrome P450 2D6 (Homo sapiens) (UniProt P10635)"
measured = "inactive"


q: Return value of AC50 for input O=C(NCCc1ccc(Cl)cc1)Nc1cccc(Cl)c1 , no commentary.
a: 891 nM (active)

q: Return value of AC50 for input CCN(CC)CCCNC(=O)C1CCC(=O)N(c2ccc(OC)cc2)C1c1ccc(F)cc1 (centres undefined) , no commentary.
a: inactive

q: Return value of AC50 for input Fc1cccc(NC(=S)NCCCN2CCOCC2)c1 , no commentary.
a: 7940 nM (active)

q: Return value of AC50 for input O=C(OC1CCN(c2ccc([N+](=O)[O-])cc2)CC1)c1ccccc1 , no commentary.
a: inactive

q: Return value of AC50 for input CCN(CC)CCCNC(=O)CC1Sc2ccccc2NC1=O (centres undefined) , no commentary.
a: 5010 nM (active)
